Ref: ChEMBL document CHEMBL5058577

System: Fibroblast
Assay: Multiplex assay against human fibroblast
Format: toxicity, cell-based
Details: 48 h, 1 µM, compound concentration 1 uM, replicate 2
Non-standard residues stand in square brackets, D forms with d. Residues, ends and D or L forms follow the SMILES beside them.
observation-type: Population Fragmented Nuclei (%)
Numbers only, in %.

[[record]]
molecule = "O=C(NCCNCC(O)COc1ccc(O)cc1)N1CCOCC1.O=C(NCCNCC(O)COc1ccc(O)cc1)N1CCOCC1.O=C(O)/C=C/C(=O)O (configuration not stated) [XAMOTEROL FUMARATE]"
target_under_test = "Fibroblast"
observation_type = "Population Fragmented Nuclei (%)"
recorded_measurement = 42

[[record]]
molecule = "COc1c(Nc2ccc(S(C)(=O)=O)nc2C)ncnc1OC1CCN(C(=O)OC(C)C)CC1"
target_under_test = "Fibroblast"
observation_type = "Population Fragmented Nuclei (%)"
recorded_measurement = 28


Please report Population Fragmented Nuclei (%) for every entry that follows.
1. Cn1cc(C(=O)OCC2CCN(CCNS(C)(=O)=O)CC2)c2ccccc21
2. COCCCN1CCC(NC(=O)c2cc(Cl)c(N)c3c2OCC3)CC1 [PRUCALOPRIDE]
3. O=C(Nc1cc(-c2ccccc2)nn1-c1ccccc1F)c1ccc([N+](=O)[O-])cc1

33
36
30

Below is a list of molecules. For each, state its recorded Population Fragmented Nuclei (%).
1. CC(C)C[C@@H]1NC(=O)[C@@H](C(C)C)NC(=O)[C@@H]2CCCN2C(=O)[C@@H](CC(=O)O)NC(=O)[C@@H](Cc2c[nH]c3ccccc23)NC1=O [BQ-123] (cyclo(L[dW][dD]P[dV]))
2. OCCCNc1cc(-c2ccnc(Nc3cccc(Cl)c3)n2)ccn1
3. CN1CCN(c2ccc(Nc3c4ccccc4nc4ccccc34)cc2)CC1.Cl.Cl.O
4. CCC(=O)OCC(=O)[C@@]1(OC(=O)CC)[C@@H](C)C[C@H]2[C@@H]3CCC4=CC(=O)C=C[C@]4(C)[C@@]3(Cl)[C@@H](O)C[C@@]21C [BECLOMETHASONE DIPROPIONATE]
5. C[C@H](NC(=O)CNC(=O)c1cccc(Cl)c1)c1ccccc1
6. O=c1nc2[nH]c3ccccc3nc-2c(=O)[nH]1
7. CN1CCN2c3ccccc3Cc3ccccc3C2C1.Cl (configuration not stated) [MIANSERIN HYDROCHLORIDE]
8. Nc1nc(-c2ccco2)c2cnn(Cc3ccccc3F)c2n1

[28, 36, 25, 31, 29, 30, 36, 41]

Consider the following items and state reported Population Fragmented Nuclei (%) for each.
1. O=C(O)CCC/C=C\CC1C(O)CC(O)C1/C=C/C(O)COc1cccc(Cl)c1 (configuration not stated)
2. CCCCCCNC(=O)Nc1ccc(S(=O)(=O)Nc2ccc(CCNC[C@H](O)COc3ccc(O)cc3)cc2)cc1
3. COC(c1ccccc1)(c1ccccc1)[C@H](Oc1nc(C)cc(C)n1)C(=O)O
4. COc1cc(OC2CCN(C(C)=O)CC2)ccc1C(=O)N1CCC(N2C(=O)OCc3ccccc32)CC1
5. Cc1cc(NC(=O)NCCN2CCC(O)(Cc3ccccc3)CC2)c2ccccc2n1
6. COc1cc(Nc2ncc3c(n2)-c2ccc(Cl)cc2C(c2c(F)cccc2OC)=NC3)ccc1C(=O)O
7. C=CCN1C[C@H](C(=O)N(CCCN(C)C)C(=O)NCC)C[C@@H]2c3cccc4[nH]cc(c34)C[C@H]21

1. 37
2. 33
3. 24
4. 32
5. 42
6. 33
7. 24

// batch mode: one Population Fragmented Nuclei (%) value per listed entry
1. COc1cc2nc(N3CCN(C(=O)c4ccco4)CC3)nc(N)c2cc1OC.Cl [PRAZOSIN HYDROCHLORIDE]
2. C[C@@H]1CC(=O)Nc2cccc(-c3ccc4c(c3)c(-c3cnn(C)c3)nn4C)c2N1

1: 29; 2: 36
